Tested on: NCI/ADR-RES ovarian
Method summary: NCI-60 one-dose screen, 48 h (100 = growth as untreated, 0 = no growth, -100 = all killed)
Protocol conditions: 10 µM unless noted
Method: Growth inhibition of the NCI/ADR-RES human […] tumor cell line is measured as a screen for anti-cancer activity. Cells are grown in 96 well plates and exposed to the test compound for 48 hours. Compounds are tested at a single concentration, which is 10^-5 M for most compounds. The reported endpoint is percent growth (GI% or GIPRCNT), where numbers from 0 - 100% represent growth inhibition, and numbers from -100% - 0 represent cell death. For example, a value of 40 represents 60% growth inhibition. […]
Compounds without any hit were thinned out: in the full panel of roughly 83,000, 20% have a hit.
Label scheme for growth: lower than 40% is Condition not met, 40% and above is Condition met.

Below are worked cases with known answers.
>  <Compound smiles>
O=S(=O)(NCCCNc1nccc(-c2[nH]c(-c3ccccc3)nc2-c2ccc(Cl)c(O)c2)n1)c1cccc2ccccc12

>  <Class>
Condition not met

$$$$
>  <Compound smiles>
CN(C)CCN(C)c1ccc2ncc(C#Cc3cncc(C(=O)Nc4ccc(CN5CCN(C)CC5)c(C(F)(F)F)c4)c3)n2n1

>  <Class>
Condition not met

$$$$
>  <Compound smiles>
COc1ccc(/C=C/C(=O)c2cc(S(N)(=O)=O)c(OC)cc2OC)cc1

>  <Class>
Condition met

$$$$
>  <Compound smiles>
Cc1cc(-c2ccc(Cl)cc2)n(Cc2nnc(SCC(=O)Nc3ccc(S(N)(=O)=O)cc3)n2-c2ccc([N+](=O)[O-])cc2)n1

>  <Class>
Condition met

$$$$
>  <Compound smiles>
NC(=O)c1c(NC(=O)c2ccccc2C(F)(F)F)sc2c1CCC(=O)C2

>  <Class>
Condition not met

$$$$

Query: Is reported growth greater than or equal to 40% here: CC1(C)CC[C@]2(CN)CC[C@]3(C)C(=CC[C@@H]4[C@@]5(C)CCCNC(C)(C)[C@@H]5CC[C@]43C)[C@H]2C1
Result: Condition met

Query: Is reported growth greater than or equal to 40% here: FC(F)(F)c1cc(Nc2cccc(Oc3ccc(NC4=NCCN4)nc3)c2)ccc1Cl
Result: Condition not met

Query: Is reported growth greater than or equal to 40% here: c1n[nH]cc1-c1nc2ccc3[nH]ncc3c2c2c1CCCC2
Result: Condition met

###

Listed below: growth values for each entry.
Test system: CCRF-CEM leukemia
Method summary: NCI-60 one-dose screen, 48 h (100 = growth as untreated, 0 = no growth, -100 = all killed)
Protocol conditions: 10 µM unless noted
About 83,000 compounds went through this panel and 20% of them were active in at least one assay; those are over-represented in the sample as a whole.
Express the result in % but write the number alone.

Sample records with growth:
>  <Compound>
CCN(CC)c1ccc(NC2=C(Cl)C(=O)c3nc(C)ccc3C2=O)cc1

>  <Uom>
%

>  <growth>
0.0595

$$$$
>  <Compound>
CC(C)(C)CC(C)(C)n1nnnc1C(Nc1nccs1)c1cc2cccc3ccc4cccc1c4c32 (stereo not drawn)

>  <Uom>
%

>  <growth>
106

$$$$
>  <Compound>
Cc1ccc2c(c1)Oc1nc(N)c(C#N)c(N)c1C2Sc1ccc(F)cc1 (stereo not drawn)

>  <Uom>
%

>  <growth>
-21.1

$$$$
>  <Compound>
COC(=O)C1(C)CCC[C@]2(C)[C@H]3C[C@H]4C(C(C)C)=C[C@]3(CC[C@@H]12)[C@H]1[C@@H]4[C@@H](OC(=O)c2ccco2)CC[C@@H]1OC(=O)c1ccco1 (stereo partly drawn)

>  <Uom>
%

>  <growth>
105

$$$$
>  <Compound>
C#C[C@]1(O)CC[C@H]2[C@@H]3CC=C4c5sc(-c6ccc(C)cc6)nc5CC[C@]4(C)[C@H]3CC[C@@]21C

>  <Uom>
%

>  <growth>
6.48

$$$$
>  <Compound>
NC(N)=Nc1ccc(Oc2cccc(Oc3ccc(Cl)c(C(F)(F)F)c3)c2)cn1

>  <Uom>
%

>  <growth>
-29.8

$$$$

Query: # input compound: COC(=O)C[Se]C(=O)Cc1c(C)n(C(=O)c2ccc(Cl)cc2)c2ccc(OC)cc12 ; wanted: its growth
Result: 50.1

Query: # input compound: Nc1nc(N)c2c(n1)NC(c1ccc(Cl)cc1)CC(c1ccc(Nc3nc(NCCO)nc(N4CCOCC4)n3)cc1)=N2 (stereo not drawn) ; wanted: its growth
Result: 48.2

Recorded values, source PubChem BioAssay (NCI).
